Where do these numbers come from? They come from ChEMBL document CHEMBL1132130.

- TARGET_OR_TEST_SYSTEM: Metabotropic glutamate receptor 2 (Rattus norvegicus, UniProt P31421)
- Sequence (P31421 whole entry): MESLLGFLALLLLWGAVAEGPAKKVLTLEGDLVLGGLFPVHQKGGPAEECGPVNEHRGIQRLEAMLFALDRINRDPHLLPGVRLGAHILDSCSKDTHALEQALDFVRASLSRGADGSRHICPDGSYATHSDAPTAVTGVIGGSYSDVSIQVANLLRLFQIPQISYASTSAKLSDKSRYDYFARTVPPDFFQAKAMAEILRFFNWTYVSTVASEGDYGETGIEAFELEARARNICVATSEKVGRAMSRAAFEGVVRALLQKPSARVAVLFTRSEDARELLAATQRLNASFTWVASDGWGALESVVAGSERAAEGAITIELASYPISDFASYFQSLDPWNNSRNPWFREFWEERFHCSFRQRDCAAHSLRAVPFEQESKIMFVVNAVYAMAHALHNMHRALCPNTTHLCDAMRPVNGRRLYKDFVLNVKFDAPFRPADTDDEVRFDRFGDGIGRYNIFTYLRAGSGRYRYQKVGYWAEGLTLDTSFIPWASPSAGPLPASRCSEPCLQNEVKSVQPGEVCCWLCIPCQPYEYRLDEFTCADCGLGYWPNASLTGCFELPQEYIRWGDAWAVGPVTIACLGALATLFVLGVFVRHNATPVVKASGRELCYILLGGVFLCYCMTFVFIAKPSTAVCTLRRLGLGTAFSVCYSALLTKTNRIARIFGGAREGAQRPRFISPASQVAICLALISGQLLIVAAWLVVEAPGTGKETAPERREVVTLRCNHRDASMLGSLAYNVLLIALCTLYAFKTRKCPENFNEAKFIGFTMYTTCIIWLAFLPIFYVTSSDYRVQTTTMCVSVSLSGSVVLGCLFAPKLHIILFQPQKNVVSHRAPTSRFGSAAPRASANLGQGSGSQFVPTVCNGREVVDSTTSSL
- ASSAY_NOTES: Inhibition of 1S, 3R-ACPD (10 uM)-stimulated GTP gamma 35S binding on rat mGluR2 transfected cell membranes from CHO cells
MEASURED_METRIC: IC50

Recall and state the measured IC50 for COc1ccc(/C(=C/n2cncn2)OC(C)C)c(OC)c1 .
> 100 µM

###

- TARGET_OR_TEST_SYSTEM: Metabotropic glutamate receptor 2 (Rattus norvegicus, UniProt P31421)
- ASSAY_NOTES: Inhibition of 10 uM 1S, 3R-ACPD stimulated GTP gamma 35S binding to rat mGluR2 expressed in CHO cells
- Type: cell-based
MEASURED_METRIC: pIC50
Expect pIC50 as a plain number equal to -log10 of the molar concentration.

Report value only: pIC50, Metabotropic glutamate receptor 2 (Rattus norvegicus, UniProt P31421), Clc1cccc(Cl)c1/C(=C/n1cncn1)OC1CCCCCC1
6.96
